biological target: SAE (Homo sapiens); construct: endogenous in cells; host or cells: HCT116; assay: SUMO IF: in vitro inhibitory activity assay against SAE in HCT116 cells (SUMO-2/3 immunofluorescence); assay type: cell-based; conditions: class symbols, 6 h at 37° C.
pIC50: −log10 of the molar value.
Measured property: pIC50

# annotated cases, reported pIC50 shown
{"Compound": "NS(=O)(=O)OC[C@H]1[C@H](F)[C@@H](Nc2ncncc2C(=O)c2cc3c(s2)OCC[C@]32NCCc3ccc(Cl)cc32)C[C@@H]1O", "pIC50": "6.70 to 7.30"}
{"Compound": "Cc1sc(C(=O)c2cncnc2N[C@H]2C[C@H](O)[C@@H](COS(N)(=O)=O)[C@@H]2F)cc1C1NCCc2ccc(C3CC3)cc21 (stereo partly drawn)", "pIC50": "6.70 to 7.30"}
{"Compound": "NS(=O)(=O)OC[C@H]1[C@H](F)[C@@H](Nc2ncncc2C(=O)c2cc3c(s2)C(F)(F)CC32NCCc3ccc(F)cc32)C[C@@H]1O (stereo partly drawn)", "pIC50": "6.70 to 7.30"}
{"Compound": "Cc1sc(C(=O)c2cncnc2N[C@H]2C[C@H](O)[C@@H](COS(N)(=O)=O)[C@@H]2F)cc1C1NCC2(CC2)c2ccc(Cl)cc21 (stereo partly drawn)", "pIC50": "6.70 to 7.30"}
{"Compound": "Cc1sc(C(=O)c2cncnc2N[C@H]2C[C@H](O)[C@@H](COS(N)(=O)=O)[C@@H]2F)cc1C1NCCc2cnc(Cl)cc21 (stereo partly drawn)", "pIC50": "6.70 to 7.30"}
{"Compound": "CC(C)N1Cc2sc(C(=O)c3cncnc3N[C@H]3C[C@H](O)[C@@H](COS(N)(=O)=O)[C@@H]3F)cc2C2(C1)OCCc1ccc(F)cc12 (stereo partly drawn)", "pIC50": "6.70 to 7.30"}

State, for SAE (Homo sapiens), measured pIC50 of the compound listed here: CC1CNC2(C=Cc3sc(C(=O)c4cncnc4N[C@H]4C[C@H](O)[C@@H](COS(N)(=O)=O)[C@@H]4F)cc32)c2cc(Cl)ccc21 (stereo partly drawn)
6.70 to 7.30

---

Molecular target: SAE (Homo sapiens, UniProt Q9UBT2)
Construct: endogenous in cells; host or cells: HCT116
Sequence (Q9UBT2 1-640): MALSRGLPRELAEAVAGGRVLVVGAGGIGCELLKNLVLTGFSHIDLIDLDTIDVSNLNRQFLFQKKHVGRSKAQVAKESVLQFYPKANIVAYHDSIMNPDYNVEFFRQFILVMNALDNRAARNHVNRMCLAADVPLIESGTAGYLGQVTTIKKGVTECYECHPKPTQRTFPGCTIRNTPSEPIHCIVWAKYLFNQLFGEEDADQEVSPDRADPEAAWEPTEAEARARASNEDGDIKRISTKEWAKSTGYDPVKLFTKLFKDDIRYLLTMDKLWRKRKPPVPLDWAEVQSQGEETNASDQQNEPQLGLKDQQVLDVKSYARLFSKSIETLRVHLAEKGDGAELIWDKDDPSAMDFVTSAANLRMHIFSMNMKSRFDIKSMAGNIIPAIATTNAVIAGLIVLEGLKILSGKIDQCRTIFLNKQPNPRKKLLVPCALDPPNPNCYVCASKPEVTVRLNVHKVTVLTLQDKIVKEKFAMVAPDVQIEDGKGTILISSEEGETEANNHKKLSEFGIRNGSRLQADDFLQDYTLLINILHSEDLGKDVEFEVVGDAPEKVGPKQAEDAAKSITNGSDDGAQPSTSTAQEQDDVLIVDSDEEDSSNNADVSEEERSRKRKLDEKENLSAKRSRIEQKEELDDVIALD
Sequence (Q9UBE0 1-346): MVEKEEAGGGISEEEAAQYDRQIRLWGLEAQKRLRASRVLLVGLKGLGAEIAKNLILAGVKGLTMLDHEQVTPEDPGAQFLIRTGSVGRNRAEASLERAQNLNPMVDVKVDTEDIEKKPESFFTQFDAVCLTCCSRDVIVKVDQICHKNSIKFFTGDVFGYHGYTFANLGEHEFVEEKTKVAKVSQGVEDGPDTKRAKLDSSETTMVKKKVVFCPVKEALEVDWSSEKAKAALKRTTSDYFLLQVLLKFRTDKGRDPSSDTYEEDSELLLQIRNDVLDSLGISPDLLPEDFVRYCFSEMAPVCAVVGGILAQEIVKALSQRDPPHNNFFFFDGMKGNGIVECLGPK
Experiment: SUMO IF: in vitro inhibitory activity assay against SAE in HCT116 cells (SUMO-2/3 immunofluorescence)
Format: cell-based
Conditions: class symbols, 6 h at 37° C.
Measured property: IC50

{"Molecule": "NS(=O)(=O)OC[C@H]1[C@H](F)[C@@H](Nc2ncncc2C(=O)c2cc3c(s2)CSC[C@@]32NCCc3cnc(Cl)cc32)C[C@@H]1O [Compound 607]", "Recorded measurement": "> 200 nM"}

Give the reported IC50 for this molecule. N#Cc1ccc2c(c1)C1(CCc3sc(C(=O)c4cncnc4N[C@H]4C[C@H](O)[C@@H](COS(N)(=O)=O)[C@@H]4F)cc31)OCC2 (stereo partly drawn) [Compound 750]
50 to 200 nM

Give the reported IC50 for this molecule. NS(=O)(=O)OC[C@H]1[C@H](F)[C@@H](Nc2ncncc2C(=O)c2cc3c(s2)CC[C@]32NCCc3cc(F)c(Cl)cc32)C[C@@H]1O [Compound 692]
≤ 50 nM
